assay: yeast display, Sf9 membrane polyspecificity reagent, FACS + sequencing; frameworks hold sequencing errors
endpoint: polyreactivity (PSR sort gate)

Input line: So what does the record say about polyreactivity (PSR sort gate) for `QVQLVESGGGLVQARGSLRLSCAASGSIFYGNAMGWYRQAHGKERELVAAISQSGGSTYYADSVKGRFTISRDNAKNTVYLQMNSLKPEDTAVYYCAAYTPYATWRYDYWGQGTQVTVSS` ?
Output line: low polyreactivity

Input line: So what does the record say about polyreactivity (PSR sort gate) for `QVQLVESGGGLVQAGGSLRLSCAASGFIFPRYAMGWYRQAPGKERELVAGITSRGTGTYYADSVKGRFTISRDNAKNTVYLQMNSLKPEDTAVYYCARLSTKPLPYDYWGLGTQVTVSS` ?
Output line: high polyreactivity

Input line: So what does the record say about polyreactivity (PSR sort gate) for `QVQLVESGGGLVQAGGSLRLSCAASGRTFTPYAMGWYRPAPGKERELVATISSGTSTNYADSVKGRVTISRDNAKNTVYLQMNSLKPEDTAVYYCSPSRDTVGRGPIQRDYWGQGTQVTVSS` ?
Output line: low polyreactivity

Input line: So what does the record say about polyreactivity (PSR sort gate) for `QVQLVESGGGLVQAGGSLRLSCAASGFISDDYAMGWYRQAPGKERELVAAISDSGVDTYYADSVKGRFTISRDNAKNTVYLLMNSLKPEDTAVYYCATLTYASNRYGYWGQGTHVTVSS` ?
Output line: low polyreactivity

Input line: So what does the record say about polyreactivity (PSR sort gate) for `QVQLVESGGGLVQAGGSLRLSCAASGRTYVRDTMGWYRQAPGQERQLVAAITWSGGSTYYADSVKGRFTISRDNAKNTVYLQMNSLKPEDTAVYYCARRYSPHTSVSYYSWGQGNQVTVSS` ?
Output line: high polyreactivity

Input line: So what does the record say about polyreactivity (PSR sort gate) for `QVQLVESGGGLVQAGGSLRLTCAASGYIQPKNTMGWYRQAPGKERELVAAISWSGGSTFYADSVKGRFTISRDNAKNTVYLKMNSLKPVDTAVYYCAADRSWSWYYRYDYWGQGTQVTLSS` ?
Output line: low polyreactivity

Input line: So what does the record say about polyreactivity (PSR sort gate) for `QVQLVESGGGLVQAGGSLRLSCAASGSTLVFYAMGWYRQAPGKERELVAAITRSGGSTYYADSVKGRFTISRDNEKNTVYLQMNSLKPEDTAFYYCAADERYIYERDSWGQGTQVTVSS` ?
Output line: low polyreactivity

Input line: So what does the record say about polyreactivity (PSR sort gate) for `QVQLVESGGGLVQAGGSLRLSCAASGLTFGDYAMGWYRQAPGKEWELVAVITSSGSTYYADSVKGRFTISRDNAKNTVYLQMNSLKPEDTAVYYCATSAPAYRWRERYYYWGQGTQVTVSS` ?
Output line: high polyreactivity

Input line: So what does the record say about polyreactivity (PSR sort gate) for `QVQLVESGGGLVQAGGSLRLSCAASGSISYFYAMGWYRQAPGKERELVAAINSGDDTYADSVKGRFTISRDNAKNTVYLQMNSLKPEDTAVYYCAVKYGGYESHYYRRPHYDYWGQGTQVTVSS` ?
Output line: low polyreactivity

Input line: So what does the record say about polyreactivity (PSR sort gate) for `QVQLVESAGGLVQAGGSLRLSCAASGSTFIRYAMGWYRQAPGKERELVAAITRGGSTYYADSVKGRFTISRDNAKYTVYLQMNSLKPEDTAVYYCAAGYYGNGVFEYDYWGQGTQVTVSS` ?
Output line: low polyreactivity

The record that follows has no polyreactivity (PSR sort gate) shown yet.
Input line: So what does the record say about polyreactivity (PSR sort gate) for `QVQLVESGGGLVQAGGSLRLSCAASGSTFYDNAMGWYRQAPGKERELVARIRWSGVRTYYADSVKGRFTISRDNAKNTVYLQMISLKPEDTAVYYCAAGRPRPHWWSLDYYYWGQGTQVTVSS` ?
Output line: low polyreactivity
